Data origin, for the record: ChEMBL document CHEMBL1221245

Assay system Beta-1 adrenergic receptor (Homo sapiens); read-out recorded as pKi.
Answers are plain numbers, as −log10 of the molar value.

Worked cases, pKi given:
- SMILES REPRESENTATION: "O=c1[nH]c2c(O)ccc([C@@H](O)CN[C@@H]3CCCC[C@H]3OCc3ccccc3)c2s1"
  VALUE TYPE: "pKi"
  OBSERVED RESULT: 7.39
- SMILES REPRESENTATION: "C[C@H](NC[C@H](O)c1ccc(O)c2[nH]c(=O)sc12)c1ccc2ccccc2c1"
  VALUE TYPE: "pKi"
  OBSERVED RESULT: 7.47

I would be grateful if you could provide pKi for each of the following entries.
1. CC1(C)[C@@H]2CC[C@]1(C)[C@@H](NC[C@H](O)c1ccc(O)c3[nH]c(=O)sc13)C2
2. Cc1onc(-c2ccccc2)c1CNC[C@H](O)c1ccc(O)c2[nH]c(=O)sc12

1: 5.82; 2: 6.04

====

biological target: Beta-1 adrenergic receptor (Homo sapiens, UniProt P08588)
Sequence (P08588 whole entry): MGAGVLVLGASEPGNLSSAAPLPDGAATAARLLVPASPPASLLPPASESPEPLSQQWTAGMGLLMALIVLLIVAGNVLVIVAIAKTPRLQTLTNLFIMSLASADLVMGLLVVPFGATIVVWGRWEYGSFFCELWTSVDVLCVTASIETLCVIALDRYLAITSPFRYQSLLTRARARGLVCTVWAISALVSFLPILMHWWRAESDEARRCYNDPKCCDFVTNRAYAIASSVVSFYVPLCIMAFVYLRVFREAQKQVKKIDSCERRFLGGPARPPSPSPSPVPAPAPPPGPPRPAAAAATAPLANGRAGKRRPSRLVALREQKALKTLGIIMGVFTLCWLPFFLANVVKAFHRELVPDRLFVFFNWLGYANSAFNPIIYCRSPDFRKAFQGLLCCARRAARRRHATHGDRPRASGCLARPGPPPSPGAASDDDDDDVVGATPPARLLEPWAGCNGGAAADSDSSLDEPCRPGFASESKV
pKi: −log10 of the molar value.
Please mark 1.0 if the recorded pKi is equal to or greater than 7, and 0.0 if it falls below.

Please check the record CC(C)(C)CC(C)(C)NC[C@H](O)c1ccc(O)c2[nH]c(=O)sc12 and state if its pKi is at or above 7. 1.0

Please check the record O=c1[nH]c2c(O)ccc([C@@H](O)CNC3CCCCC3C3CCCCC3)c2s1 (stereo not given in full) and state if its pKi is at or above 7. 0.0

Please check the record O=c1[nH]c2c(O)ccc([C@@H](O)CNCCc3ccccc3)c2s1 and state if its pKi is at or above 7. 1.0

Please check the record O=c1[nH]c2c(O)ccc([C@@H](O)CNCCSc3ccc(Cl)cc3)c2s1 and state if its pKi is at or above 7. 1.0

Please check the record O=c1[nH]c2c(O)ccc([C@@H](O)CN[C@H]3CCCc4ccccc43)c2s1 and state if its pKi is at or above 7. 1.0

====

Assay system Beta-1 adrenergic receptor (Homo sapiens, UniProt P08588); read-out recorded as Ki.
One number for each entry, in µM.

Worked cases, Ki given:
- MOLECULE: "CNCC(O)c1ccc(O)c2nc(O)sc12 (stereo not given)"
  Ki, µM: 0.0606
- MOLECULE: "C[C@@H](NC[C@H](O)c1ccc(O)c2[nH]c(=O)sc12)c1ccc2ccccc2c1"
  Ki, µM: 0.0014
- MOLECULE: "O=c1[nH]c2c(O)ccc([C@@H](O)CN[C@@H]3CCCc4ccccc43)c2s1"
  Ki, µM: 0.112
- MOLECULE: "O=c1[nH]c2c(O)ccc([C@@H](O)CNC3CCN(CCN4CCCCCC4)CC3)c2s1"
  Ki, µM: 0.187

Known value: Beta-1 adrenergic receptor (Homo sapiens, UniProt P08588) Ki of the molecule C[C@H](NC[C@H](O)c1ccc(O)c2[nH]c(=O)sc12)C1CCCCC1 equals 0.0393

====

biological target: Beta-2 adrenergic receptor (Homo sapiens, UniProt P07550)
Sequence (P07550 whole entry): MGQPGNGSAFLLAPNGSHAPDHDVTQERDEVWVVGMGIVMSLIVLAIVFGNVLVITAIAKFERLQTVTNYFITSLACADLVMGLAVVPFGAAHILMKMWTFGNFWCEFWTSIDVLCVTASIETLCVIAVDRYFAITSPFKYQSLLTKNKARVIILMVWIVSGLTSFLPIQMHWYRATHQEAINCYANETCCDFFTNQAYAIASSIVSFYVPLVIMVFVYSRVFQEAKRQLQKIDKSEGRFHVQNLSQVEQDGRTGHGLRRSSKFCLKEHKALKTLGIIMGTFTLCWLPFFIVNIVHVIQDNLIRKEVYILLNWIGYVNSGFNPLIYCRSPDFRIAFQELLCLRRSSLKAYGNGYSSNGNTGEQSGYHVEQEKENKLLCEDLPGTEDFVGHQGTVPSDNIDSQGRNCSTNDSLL
VALUE TYPE: log10(Ki) (log10 of the value in nM)
Log scale reminder: Ki in nM, then log10 taken.

Worked cases, log10(Ki) given:
- COMPOUND: "O=c1[nH]c2c(O)ccc([C@@H](O)CNCCSc3ccc(Cl)cc3)c2s1"
  log10(Ki): 0.48
- COMPOUND: "O=c1[nH]c2c(O)ccc([C@@H](O)CNCC34CC5CC(CC(C5)C3)C4)c2s1"
  log10(Ki): 1.42
- COMPOUND: "Cc1onc(-c2ccccc2)c1CNC[C@H](O)c1ccc(O)c2[nH]c(=O)sc12"
  log10(Ki): 1.30
- COMPOUND: "O=c1[nH]c2c(O)ccc([C@@H](O)CNCCc3ccccc3)c2s1"
  log10(Ki): 0.26
- COMPOUND: "CC1(C)[C@@H]2CC[C@@]1(C)[C@@H](NC[C@H](O)c1ccc(O)c3[nH]c(=O)sc13)C2"
  log10(Ki): 0.58

I would be grateful if you could provide log10(Ki) for each of the following entries.
1. O=c1[nH]c2c(O)ccc([C@@H](O)CN[C@H]3CCCC[C@@H]3OCc3ccccc3)c2s1
2. O=c1[nH]c2c(O)ccc([C@@H](O)CNC3CCCCC3C3CCCCC3)c2s1 (some centres undefined)
3. CNCC(O)c1ccc(O)c2nc(O)sc12 (centres undefined)
4. CC(C)(C)CC(C)(C)NC[C@H](O)c1ccc(O)c2[nH]c(=O)sc12

1. 2.56
2. 2.18
3. 0.70
4. 0.28

I would be grateful if you could provide log10(Ki) for each of the following entries.
1. C[C@H](NC[C@H](O)c1ccc(O)c2[nH]c(=O)sc12)c1ccc2ccccc2c1
2. O=c1[nH]c2c(O)ccc([C@@H](O)CNC3CCN(CCN4CCCCCC4)CC3)c2s1
3. CC(C)(Cc1ccccc1)NC[C@H](O)c1ccc(O)c2[nH]c(=O)sc12
4. O=c1[nH]c2c(O)ccc([C@@H](O)CNCCCc3ccccc3)c2s1
5. O=c1[nH]c2c(O)ccc([C@@H](O)CNCCCCc3ccccc3)c2s1
6. O=c1[nH]c2c(O)ccc([C@@H](O)CN[C@H]3CCCc4ccccc43)c2s1
7. CN(CCCNC[C@H](O)c1ccc(O)c2[nH]c(=O)sc12)c1ccccc1
8. O=c1[nH]c2c(O)ccc([C@@H](O)CNCCOc3ccccc3)c2s1

[1.69, 0.80, -0.40, 0.08, 0.26, 1.48, -0.52, 0.64]

I would be grateful if you could provide log10(Ki) for each of the following entries.
1. C[C@@H](NC[C@H](O)c1ccc(O)c2[nH]c(=O)sc12)C1CCCCC1
2. O=c1[nH]c2c(O)ccc([C@@H](O)CN[C@@H]3CCCC[C@H]3OCc3ccccc3)c2s1
3. C[C@H](NC[C@H](O)c1ccc(O)c2[nH]c(=O)sc12)C1CCCCC1
4. C[C@@H](NC[C@H](O)c1ccc(O)c2[nH]c(=O)sc12)c1ccc2ccccc2c1
5. O=c1[nH]c2c(O)ccc([C@@H](O)CNC3CCCCCC3)c2s1

0.00
0.86
1.40
0.43
1.07

I would be grateful if you could provide log10(Ki) for each of the following entries.
1. O=c1[nH]c2c(O)ccc([C@@H](O)CN[C@@H]3CCCc4ccccc43)c2s1
2. CC1(C)[C@@H]2CC[C@]1(C)[C@@H](NC[C@H](O)c1ccc(O)c3[nH]c(=O)sc13)C2

1. 0.97
2. 1.61
